Recorded IC50 for compounds tested on Angiopoietin-1 receptor (Homo sapiens, UniProt Q02763), drawn from a number of studies.

| chemical-string | IC50 |
| --- | --- |
| COc1cc(Nc2ncnc(-n3c(NCc4cccc(F)c4)nc4ccccc43)n2)cc(OC)c1OC | > 8.97 µM |
| O=C(Nc1cc(COc2nsnc2N2CCN(C(=O)Nc3cc(C(F)(F)F)cc(C(F)(F)F)c3)CC2)ccn1)OCCN1CCOCC1 | < 0.05 µM |

Look up and report IC50, with Angiopoietin-1 receptor (Homo sapiens, UniProt Q02763) as system, for Nc1nccc(COc2cccnc2N2CCN(C(=O)Nc3ccccc3)CC2)n1
1 to 10 µM

Give measured IC50 for COc1cc(Nc2ncnc(-n3c(=O)[nH]c4ccccc43)n2)cc(OC)c1OC (Angiopoietin-1 receptor (Homo sapiens, UniProt Q02763)).
> 11.4 µM

Give the observed IC50 of CCc1cc(-c2nc(N[C@H]3c4ccccc4C[C@H]3O)c3ccccc3n2)ccn1 for Angiopoietin-1 receptor (Homo sapiens, UniProt Q02763).
≥ 10 µM

State the measured IC50 (Angiopoietin-1 receptor (Homo sapiens, UniProt Q02763)) of COc1cc(Nc2ncnc(N(C)c3ccc(Cl)cc3)n2)cc(OC)c1OC
0.995 to 5.97 µM

Report value only: IC50, Angiopoietin-1 receptor (Homo sapiens, UniProt Q02763), COc1cc(Nc2ncnc(Nc3ccc(Br)cc3)n2)cc(OC)c1OC
> 10.4 µM

// output IC50; input CNC(=O)c1cc(Oc2ccc3c(c2)CCN3C(=O)Nc2cccc(C(F)(F)F)c2)ccn1 ; system Angiopoietin-1 receptor (Homo sapiens, UniProt Q02763)
< 0.25 µM

---

Listing of IC50 toward Angiopoietin-1 receptor (Homo sapiens), each taken from a published source.

| molecule | measured |
| --- | --- |
| CCc1cc(CC)cc(NC(=O)N2CCN(c3nccnc3OCc3ccnc(N)n3)CC2)c1 | < 0.05 µM |

Answer briefly: IC50 recorded on Angiopoietin-1 receptor (Homo sapiens) for COc1cc(N2CCN(C)CC2)ccc1-c1cnn2c(N)c(-c3cccc(O)c3)cnc12
< 1 µM

Tell me IC50 of CCc1cc(Cl)cc(NC(=O)N2CCN(c3nccnc3OCc3ccnc(N)n3)CC2)c1 when tested on Angiopoietin-1 receptor (Homo sapiens).
< 0.05 µM

Please report the measured IC50 for COc1cc(Nc2ncnc(-n3c(NC(C)=O)nc4ccccc43)n2)cc(OC)c1OC tested on Angiopoietin-1 receptor (Homo sapiens).
> 10.3 µM

Enter IC50 (test system Angiopoietin-1 receptor (Homo sapiens)) for CNc1cc(-c2nc(C)n(CCN(C(=O)Cc3cccc4ccccc34)C3CCCC3)n2)ccn1
< 0.05 µM

Report IC50 from Angiopoietin-1 receptor (Homo sapiens) testing of CC(C)Oc1ccc(Nc2nc(-c3ccncc3)nc3ccccc23)cc1
1 to 10 µM

Look up Angiopoietin-1 receptor (Homo sapiens) data: IC50 of COc1ccc(-c2nc(-c3ccncc3)nn2CCN(C(=O)Cc2ccccc2)C2CCCC2)cc1Cl , then report it.
1 to 10 µM

Write down measured IC50 (Angiopoietin-1 receptor (Homo sapiens)) for this molecule. COc1ccc(-c2nc(-c3ccncc3)nn2CCCCN(C(=O)Cc2cccc3ccccc23)C2CCCC2)cc1Cl
1 to 10 µM

---

pIC50: −log10 of the molar value.
Published pIC50 for Angiopoietin-1 receptor (Homo sapiens, UniProt Q02763), assembled from different documents, is shown next.

Worked cases, answers included:
| compound | measured |
| --- | --- |
| COc1cc(Nc2ncnc(Nc3cc(-c4ccco4)n[nH]3)n2)cc(OC)c1OC | 5.07 to 5.23 |
| Cc1csc(-c2cn(C3CC(CN)C3)c3ncnc(N)c23)c1 (stereo not drawn) | 5.59 |

Then there is this compound:
Give pIC50 for this entry on Angiopoietin-1 receptor (Homo sapiens, UniProt Q02763): O=C(Cc1cccc2ccccc12)N(CCn1nc(-c2ccncc2)nc1-c1cc(Cl)cc(Cl)c1)C1CCCC1
> 7.30

---

pIC50: −log10 of the molar value.
The following compounds were reported with pIC50 values on Angiopoietin-1 receptor (Homo sapiens, UniProt Q02763) in different studies.

Worked set:
| chemical-string | pIC50 |
| --- | --- |
| Nc1nc(Nc2cnc3ccccc3c2)nn1-c1ccccn1 | 6.30 |
| COc1ccc(-c2nc(-c3ccncc3)nn2CCN(C(=O)Nc2ccc(Cl)c(Cl)c2)C2CCCC2)cc1Cl | ≤ 5.00 |
| Nc1nccc(COc2nsnc2N2CCN(C(=O)Nc3ccc(F)c(F)c3)CC2)n1 | ≤ 5.00 |

Name the recorded pIC50 of the compound listed here: COc1cc(Nc2ncnc(-n3c(Nc4cccc(C(=O)O)c4)nc4ccccc43)n2)cc(OC)c1OC
5.17 to 5.33

---

Below are pIC50 values for Angiopoietin-1 receptor (Homo sapiens, UniProt Q02763) collected from several publications.
pIC50: −log10 of the molar value.

Illustrative cases are given below, each with its answer.
| molecule | measured |
| --- | --- |
| COc1cc(Nc2ncnc(Nc3cc(-c4ccccc4)nn3C)n2)cc(OC)c1OC | < 4.98 |
| O=C(Nc1cccc(C(F)(F)F)c1)C1CCN(c2nsnc2OCc2ccncc2)CC1 | 6.00 to 7.30 |
| COc1ccc(-c2nc(-c3ccncc3)nn2CCN(C(=O)Nc2cc(Cl)ccc2OC)C2CCCC2)cc1Cl | ≤ 5.00 |
| CCc1cc(Cl)cc(NC(=O)N2CCN(c3ncccc3OCc3ccnc(N)n3)CC2)c1 | > 7.30 |
| CCc1cccc(NC(=O)N2CCN(c3nccnc3OCc3ccncc3)CC2C)c1 (stereo not drawn) | > 7.30 |

Could you now consider this next molecule?
Quickly give me recorded pIC50 for O=C(Cc1cccc2ccccc12)N(CCn1nc(-c2ccc3c(c2)OCO3)nc1-c1ccncc1)C1CCCC1
5.00 to 6.00

---

Collected IC50 for Angiopoietin-1 receptor (Homo sapiens, UniProt Q02763) across several studies; molecules listed below.

Field: example entries. Status: answers known.
| chemical-string | IC50 |
| --- | --- |
| Cc1ccc2nc(Nc3ccc(Oc4ccncc4)cc3)[nH]c2c1 | 4 µM |
| COc1cc(Nc2ncnc(-n3c(NCc4cccc(Br)c4)nc4ccccc43)n2)cc(OC)c1OC | > 8 µM |
| O=c1[nH]c2ccccc2n1-c1ncnc(Nc2cnc3ccccc3c2)n1 | 6.75 to 9.85 µM |
| COc1ccccc1Nc1ncnc(Nc2cc(OC)c(OC)c(OC)c2)n1 | > 11.7 µM |
| CNc1cc(COc2nsnc2N2CCN(C(=O)Nc3cc(C(F)(F)F)cc(C(F)(F)F)c3)CC2)ccn1 | < 0.05 µM |
| COc1ccc(-c2nc(-c3ccncc3)nn2CCN(C(=O)Nc2ccc(I)cc2)C2CCCC2)cc1Cl | ≥ 10 µM |

For O=c1[nH]c2ccccc2n1-c1ncnc(Nc2ccc(C(F)(F)F)cc2)n1 , write its IC50.
6.45 to 9.4 µM

Annotate the molecule Cc1ccc(C(=O)Nc2cccc(C(C)C)c2)cc1Oc1ncccc1-c1cnco1 with its measured IC50.
≤ 0.1 µM

Hello, please tell me recorded IC50 for this one: CCCCNc1cc(-c2nc(C)n(CCN(C(=O)Cc3cccc4ccccc34)C3CCCC3)n2)ccn1
< 0.05 µM

Respond only with IC50 recorded for CCN(CC)CCOc1ccc(Nc2ncnc(-n3c(N)nc4ccccc43)n2)cc1OC
0.892 to 5.35 µM

Complete the entry with IC50 for COc1ccc(-c2nc(-c3ccncc3)nn2CCN(C(=O)Nc2ccc(C(F)(F)F)cc2)C2CCCC2)cc1Cl
≥ 10 µM

Specify IC50 for Cc1cc(COc2nsnc2N2CCN(C(=O)Nc3cc(C(F)(F)F)cc(C(F)(F)F)c3)CC2)c2ccccc2n1 and stop.
≥ 10 µM

Identify IC50 associated with the molecule COc1ccc(-c2nc(-c3ccncc3)nn2CCN(C(=O)Cc2cccc3ccccc23)C2CCCC2)cc1Cl
< 0.05 µM

Item CCc1cccc(NC(=O)N2CCN(c3ncc(Br)cc3OCc3nc(N)ncc3Br)CC2)c1 : provide IC50
< 0.05 µM

Provide only the value of recorded IC50 for CCCCCCCNC(=O)N(CCn1nc(-c2ccncc2)nc1-c1ccc(OC)c(Cl)c1)C1CCCC1
≥ 10 µM

Give a short answer stating reported IC50 for CCc1cccc(NC(=O)N2CCN(c3nccnc3OCc3ccnc(N)n3)CC2)c1 .
< 0.05 µM

Let me know recorded IC50 for CCOc1ccccc1NC(=O)N1CCN(c2nsnc2OCc2ccnc(N)n2)CC1 , thanks.
≥ 10 µM

---

Let's look at some IC50 data for Angiopoietin-1 receptor (Homo sapiens, UniProt Q02763) that I collected from the literature.

Worked cases, answers included:
| chemical-string | measured |
| --- | --- |
| C[C@H]1CN(c2nccnc2OCc2ccncc2)CCN1C(=O)Nc1cc(C(F)(F)F)cc(C(F)(F)F)c1 | < 50 nM |
| O=S1(=O)NCCCNc2nc(ncc2-c2ccc3c(c2)OCO3)Nc2cccc1c2 | ≤ 1000 nM |
| COc1ccc(-c2nc(-c3ccncc3)nn2CCN(C(=O)Nc2ccccc2F)C2CCCC2)cc1Cl | ≥ 10000 nM |

// fetch IC50 given entry CC(=O)Nc1nccc(COc2nsnc2N2CCN(C(=O)Nc3cc(C(F)(F)F)cc(C(F)(F)F)c3)CC2)n1
< 50 nM

Determine from records and report IC50 for COc1cc(Nc2ncnc(-n3c(NCc4ccc(F)cc4Cl)nc4ccccc43)n2)cc(OC)c1OC
4480 to 6530 nM

Provide measured IC50 value, entry: Cc1nc2c(-c3cccc(N4CCN(C)CC4)c3)cnn2c(N)c1-c1cccc(Cl)c1
1000 to 10000 nM

Give recorded IC50. CCc1cccc(NC(=O)Nc2cc(COc3cccnc3N3CCN(C(=O)Nc4cccc(CC)c4)CC3)ccn2)c1
< 50 nM

For Cc1nc(-c2cc(N)nc(Cl)c2)nn1CCN(C(=O)Cc1cccc2ccccc12)C1CCCC1 , write its IC50.
50 to 1000 nM

Identify IC50 associated with the compound CC(C)(C)OC(=O)NCc1ccc(Nc2ncnc(Nc3cc(-c4ccco4)n[nH]3)n2)cc1
5350 to 7800 nM
